System: UACC-62 melanoma
Assay remarks: NCI tumour cell line growth inhibition, 48 h
TGI vs 30 µM: at or above is Yes, below is No.

| Compound | System under test | Assigned category |
| --- | --- | --- |
| CCOC(=O)/C(=C\c1ccnc2ccccc12)P(=O)(OCC)OCC | UACC-62 melanoma | No |

Q: Hi team, for CN/C=C(/c1ccc(OC)cc1)C(O)c1ccc(OC)c(OC)c1 (centres undefined) , is the recorded TGI at or above 30 µM?
Result: Yes

Q: Form field: TGI at least 30 µM? Entry: COC(=O)/C(=N\N)C(C(=O)C(=O)Nc1cccc([N+](=O)[O-])c1)c1nc2ccc(C(=O)c3ccccc3)cc2[nH]c1=O (centres undefined)
Result: Yes

Q: Reported TGI at or above 30 µM? Nc1ccc(OCC(O)N2C(=O)c3ccccc3C2=O)cc1 (centres undefined)
Result: Yes

Q: Does `COc1cc(-c2nc3ccccc3[nH]2)ccc1OCC(=O)N=Nc1c(O)[nH]c2ccc(Cl)cc12` have a reported TGI of at least 30 µM?
Result: No

Q: In plain terms: is recorded TGI at least 30 µM for `O=c1oc2ccccc2cc1-c1csc(Nc2cc(Cl)cc(Cl)c2)n1` ?
Result: Yes

Q: Is TGI at least 30 µM? Consider `O=C(N[C@@H]1C=CCC[C@@H]1c1ccccc1)OCc1ccccc1`
Result: No

Q: Could you please find out whether `COc1cc(CNc2nc3ccccc3n2Cc2ccccc2)cc(CN2CCOCC2)c1O` has TGI that meets 30 µM or exceeds it?
Result: Yes

Q: Dear colleague, could you confirm whether `COc1cc2c(cc1OC)C(=O)Cc1ccc3c(c1CNCC2)OCO3` has TGI at or above 30 µM?
Result: Yes

Q: Is reported TGI greater than or equal to 30 µM here: `COc1nc2c(cc1S(=O)(=O)c1ccccc1)CCc1c-2cnn1Cc1ccccc1`
Result: Yes

Q: Can `O=[N+]([O-])c1cccc(/C=C/c2ccccn2)c1` be said to have TGI at or above 30 µM?
Result: Yes

Q: Identify whether the reported TGI of the following compound is 30 µM or greater: `COc1cc(CNc2nc3cc(N)cc(N)c3nc2-c2ccccc2)cc(OC)c1OC`
Result: No

Q: Quick check: does `C[C@@H]1[C@H]2[C@H](C=C3[C@@H]4CC[C@H]5Cc6nc7c(nc6C[C@]5(C)[C@H]4C[C@@H](O)[C@@]32C)C[C@@H]2CC[C@H]3C4=C[C@@H]5O[C@@]6(CC[C@](C)(CO)O6)[C@@H](C)[C@@]5(O)[C@@]4(C)[C@H](O)C[C@@H]3[C@@]2(C)C7)O[C@]12CCC(C)(C)O2` have TGI greater than or equal to 30 µM?
Result: No

Q: Determine whether measured TGI meets or exceeds 30 µM for `CCCCCCCCCCCCC/C=C1\C[C@H](O)COC1=O`
Result: No

Q: Is the recorded value of TGI equal to or greater than 30 µM for this compound? `COc1cc(/C=C/C=C2\CCC/C(=C\C=C\c3ccc(O)c(OC)c3)C2=O)ccc1O`
Result: Yes

Q: Exam item: decide whether the reported TGI for `COc1cc[c]([Sb]([Br])([CH]=C(C)C)([CH]=C(C)C)[CH]=C(C)C)cc1` is at least 30 µM.
Result: Yes

Q: Identify whether the reported TGI of the following compound is 30 µM or greater: `CN(C)Cc1cc(N=Nc2ccccc2Cl)ccc1O`
Result: Yes

Q: Hi, just wondering whether `Cc1ccc(P(c2ccc(C)cc2)c2ccc(C)cc2)cc1` shows TGI of 30 µM or higher.
Result: Yes

Q: API: above_or_equal(metric=TGI, cutoff=30 µM) for item `Cc1nc2nn(Cc3ccccc3)cc2c(=O)o1`
Result: Yes

Q: Has COc1cc(C(C#N)NNC(=O)Cc2ccccc2)cc(OC)c1OC (centres undefined) a recorded TGI greater than or equal to 30 µM?
Result: Yes

Q: Does the reported TGI for O=C1c2ccccc2C(=O)c2c(NC(=O)C(Cl)CCl)cccc21 (centres undefined) fall at or above the 30 µM mark?
Result: Yes

Q: I'd appreciate it if you could say whether `Cc1cc(Cl)ccc1NC(=O)C(=O)Cc1ccc([N+](=O)[O-])c([N+](=O)[O-])c1CC(=O)C(=O)Nc1ccc(Cl)cc1C` has TGI at least equal to 30 µM.
Result: Yes

Q: Test whether the compound CSC1=C(C#N)C(=O)N(c2ccc(Cl)cc2)C(=O)C1C#N (centres undefined) records TGI of 30 µM or higher.
Result: Yes
